Tested on: MS2 coat protein
Assay: apparent KD of MS2 coat protein, switch ON state; designed switch direction (-1 OFF switch, 1 ON switch): 1; higher = weaker reporter binding
Conditions: FMN input: 0 or 200 uM; Eterna round: R93 (includes R88 designs)
Reported apparent KD of MS2 coat protein values follow for various sequences
Write the figure, then the unit, nothing else.

[[record]]
monomer_sequence = "AAAAAGUGAUGGUAGGAUAUUGGAAAAGCCACAUGAGGAUCACCCAUGUCAAAAAACCUAAAAAACAAGAAGGGCUGUUAUAAAAA [Same State 2.2]"
experimental_endpoint = "apparent KD of MS2 coat protein"
assay_result = "18.6 nM"

[[record]]
monomer_sequence = "AAAAAACAUGAGGAUCACCCAUGUGAGAACAUGGGAGGAUAUACAAGGACGAGAGUCAAGGUAGAAGGCCUAAAGA [Mat - Same State 1 - Mod - D193]"
experimental_endpoint = "apparent KD of MS2 coat protein"
assay_result = "545 nM"

[[record]]
monomer_sequence = "AUAAAAUAAAGUCAGGAUAUCCAUAAUAAAACAUGAGGAUCACCCAUGUUAAAAAAAAGAUCAUGGGAGAAGGGACAAAAUAAAU [SS2 M 33]"
experimental_endpoint = "apparent KD of MS2 coat protein"
assay_result = "28.6 nM"

[[record]]
monomer_sequence = "GAAAAACAUGAGGAUCACCCAUGUAAUACAACGUCAGGAUAUUGAUUUUAUUAUGUAUUGCAAGAAGGGACAAAAG [Mat - Same State 1 - Hyphema mod - D99]"
experimental_endpoint = "apparent KD of MS2 coat protein"
assay_result = "95.2 nM"


Noted for AUGAAUAGCAUCGAGGAUAUCCAGUCAUGCACAUGAGGAUCACCCAUGUAAGAGAGAGUAUAAUGGGAGAAGGCGAGUACUCGAU [JR_SS002_Sub1704] : its apparent KD of MS2 coat protein reads 82 nM

Noted for "AAGAAACAUGAGGAUCACCCAUGUAAACUCGAGAGAGGAUAUGGUACAUGGAAGAUCCAACUAGAAGGCUCUGGAG" : its apparent KD of MS2 coat protein reads 38.6 nM

Noted for AGGAGACAUGAGGAUCACCCAUGUGAGAAGAGGCGAGGAUAUCGAAAGAAAGAAGAGAAACGAGAAGGCGCGAGAU [salish99-SS1-021] : its apparent KD of MS2 coat protein reads 25.1 nM

Noted for AGAAAUAAAACACAGGAUAUGAAAAAGAAAACAUGAGGAUCACCCAUGUAAAAGAAAAAUAAAAAUCAGAAGGGUGAAAAUAAAG [Put G segment last in JL design (80%)] : its apparent KD of MS2 coat protein reads 59 nM

Noted for AAGAAACAUGAGGAUCACCCAUGUAGAAAUAUGGGAGGAUAUACGAAGACGAAAGUCAAAGUAGAAGGCCUAAAAG [Mat - Same State 1 - Eli mod - D107] : its apparent KD of MS2 coat protein reads 21 nM

Noted for AGCACGUGAUUGGAGGAUAUGUAGUAAGCAACAUGAGGAUCACCCAUGUCUGAGGCUGAAAACCAGCAGAAGGCCGAUACAACCA [SS2-1.6] : its apparent KD of MS2 coat protein reads 15.3 nM

Noted for GGAAAUAACAGAGAGGAUAUCCAAAGGAAAACAUGAGGAUCACCCAUGUAAAAGGAAGGAAAUUGGGAGAAGGCUCAAAAUAAAU [salish99-ss2-015] : its apparent KD of MS2 coat protein reads 20.4 nM

Noted for AGGAAACAUGAGGAUCACCCAUGUGUAAAAAAUACAGGAUAUGGAAACACGAAAGUGAAACCAGAAGGGUAAAAAA [77%, Mat - Mod of Eli, 31] : its apparent KD of MS2 coat protein reads 13.4 nM

Noted for AAAAAACAUGAGGAUCACCCAUGUCCAAAAAAAAAAGGAUAUGCAAAAAAAAAAAAAAAAGCAGAAGGUUUAAAAA [Same State 1] : its apparent KD of MS2 coat protein reads 41.2 nM

Noted for AUUCCAAAUAGUCAGGAUAUCAAAAAUAAGACAUGAGGAUCACCCAUGUACUUAGUAAAAGUAAAUGAGAAGGGACAGGGUGUAA [JR_SS002_Sub404] : its apparent KD of MS2 coat protein reads 12.9 nM

Noted for AAAAGACAUGAGGAUCACCCAUGUGAAAACGUGCGAGGAUAUGUAUGGAAACCAUACUGUACAGAAGGCGCGUGUC [SS1 - 83] : its apparent KD of MS2 coat protein reads 24.4 nM

Noted for AAUAUAUUAAGUGAGGAUAUCAUAGGAAAAACAUGAGGAUCACCCAUGUGGGAAACCUGGUCGGGUGAGAAGGUGCUUAAUAUAU [Samwise Clockwise 32 - Jieux - Same State 2] : its apparent KD of MS2 coat protein reads 50.6 nM

Noted for AAAAAACAUGAGGAUCACCCAUGUGCAAAAUUCGCAGGAUAUUUCUCAAUUAAAUGAGAGGAAGAAGGGUGACAAA [Nob's Hobby 28 - Jieux - Same State 1] : its apparent KD of MS2 coat protein reads 95.9 nM
